Molecular target: EPHA7 (human) (UniProt Q15375)
Sequence (Q15375 whole entry, looked up): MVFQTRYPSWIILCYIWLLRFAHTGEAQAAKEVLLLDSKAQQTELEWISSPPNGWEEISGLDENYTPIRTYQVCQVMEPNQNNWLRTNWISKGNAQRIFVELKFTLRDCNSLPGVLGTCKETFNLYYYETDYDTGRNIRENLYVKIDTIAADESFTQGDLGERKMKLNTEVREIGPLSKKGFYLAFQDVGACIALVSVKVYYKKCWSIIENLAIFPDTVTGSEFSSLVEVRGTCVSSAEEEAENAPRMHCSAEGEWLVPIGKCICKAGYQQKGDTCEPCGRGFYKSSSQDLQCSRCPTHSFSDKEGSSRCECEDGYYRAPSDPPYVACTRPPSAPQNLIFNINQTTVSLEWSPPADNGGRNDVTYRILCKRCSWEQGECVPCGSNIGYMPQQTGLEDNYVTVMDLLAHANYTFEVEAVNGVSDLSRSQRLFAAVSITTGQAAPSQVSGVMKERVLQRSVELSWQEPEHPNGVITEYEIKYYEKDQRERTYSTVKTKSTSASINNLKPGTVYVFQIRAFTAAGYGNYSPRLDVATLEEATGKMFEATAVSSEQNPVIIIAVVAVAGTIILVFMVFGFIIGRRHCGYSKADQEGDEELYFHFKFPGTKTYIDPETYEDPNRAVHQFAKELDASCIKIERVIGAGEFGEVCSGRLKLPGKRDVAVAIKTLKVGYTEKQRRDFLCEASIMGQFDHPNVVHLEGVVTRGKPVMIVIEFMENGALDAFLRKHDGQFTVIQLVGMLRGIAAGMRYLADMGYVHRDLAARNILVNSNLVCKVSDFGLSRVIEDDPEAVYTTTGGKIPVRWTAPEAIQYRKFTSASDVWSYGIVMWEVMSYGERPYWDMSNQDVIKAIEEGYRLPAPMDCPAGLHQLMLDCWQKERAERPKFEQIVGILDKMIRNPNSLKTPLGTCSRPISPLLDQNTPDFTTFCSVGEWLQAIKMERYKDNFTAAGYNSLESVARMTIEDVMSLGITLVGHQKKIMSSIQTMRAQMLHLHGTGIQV
Test: Caliper, Mobility shift assay off-chip
Conditions: compound 0.02 µM
Entries and their inhibition values follow.
Write the answer as a number in %, unit excluded.

In the examples that follow, each entry is paired with its recorded inhibition.
>  <compound-string>
CNC(=O)c1cc(Oc2ccc(NC(=O)Nc3ccc(Cl)c(C(F)(F)F)c3)cc2)ccn1

>  <measure-unit>
%

>  <inhibition>
2

$$$$
>  <compound-string>
Cc1ccc(Nc2nccc(N(C)c3ccc4c(C)n(C)nc4c3)n2)cc1S(N)(=O)=O

>  <measure-unit>
%

>  <inhibition>
0.1

$$$$
>  <compound-string>
COc1cc2c(Oc3ccc4[nH]c(C)cc4c3F)ncnc2cc1OCCCN1CCCC1

>  <measure-unit>
%

>  <inhibition>
-2.4

$$$$

Read the next record carefully.
inhibition measured on CNC(=O)c1ccccc1Sc1ccc2c(/C=C/c3ccccn3)n[nH]c2c1 = -0.8

###

Target: INSR (human)
Experiment: Caliper, Mobility shift assay off-chip
Settings: compound 0.02 µM
readout-kind: inhibition (%)
Numbers only here, please. The scale is %.

Solved entries:
>  <compound-string>
COc1cc2c(Oc3ccc4[nH]c(C)cc4c3F)ncnc2cc1OCCCN1CCCC1

>  <data-value>
-0.3

$$$$
>  <compound-string>
CNC(=O)c1cc(Oc2ccc(NC(=O)Nc3ccc(Cl)c(C(F)(F)F)c3)cc2)ccn1

>  <data-value>
-8.9

$$$$
>  <compound-string>
Cc1ccc(Nc2nccc(N(C)c3ccc4c(C)n(C)nc4c3)n2)cc1S(N)(=O)=O

>  <data-value>
0.3

$$$$

Let us move to another entry and its inhibition.
Hey, INSR (human) data for CNC(=O)c1ccccc1Sc1ccc2c(/C=C/c3ccccn3)n[nH]c2c1 : inhibition came out at -8.6

###

Entries and their measured inhibition follow.
Biological target: TYRO3 (human) (UniProt Q06418)
Sequence (Q06418 whole entry, looked up): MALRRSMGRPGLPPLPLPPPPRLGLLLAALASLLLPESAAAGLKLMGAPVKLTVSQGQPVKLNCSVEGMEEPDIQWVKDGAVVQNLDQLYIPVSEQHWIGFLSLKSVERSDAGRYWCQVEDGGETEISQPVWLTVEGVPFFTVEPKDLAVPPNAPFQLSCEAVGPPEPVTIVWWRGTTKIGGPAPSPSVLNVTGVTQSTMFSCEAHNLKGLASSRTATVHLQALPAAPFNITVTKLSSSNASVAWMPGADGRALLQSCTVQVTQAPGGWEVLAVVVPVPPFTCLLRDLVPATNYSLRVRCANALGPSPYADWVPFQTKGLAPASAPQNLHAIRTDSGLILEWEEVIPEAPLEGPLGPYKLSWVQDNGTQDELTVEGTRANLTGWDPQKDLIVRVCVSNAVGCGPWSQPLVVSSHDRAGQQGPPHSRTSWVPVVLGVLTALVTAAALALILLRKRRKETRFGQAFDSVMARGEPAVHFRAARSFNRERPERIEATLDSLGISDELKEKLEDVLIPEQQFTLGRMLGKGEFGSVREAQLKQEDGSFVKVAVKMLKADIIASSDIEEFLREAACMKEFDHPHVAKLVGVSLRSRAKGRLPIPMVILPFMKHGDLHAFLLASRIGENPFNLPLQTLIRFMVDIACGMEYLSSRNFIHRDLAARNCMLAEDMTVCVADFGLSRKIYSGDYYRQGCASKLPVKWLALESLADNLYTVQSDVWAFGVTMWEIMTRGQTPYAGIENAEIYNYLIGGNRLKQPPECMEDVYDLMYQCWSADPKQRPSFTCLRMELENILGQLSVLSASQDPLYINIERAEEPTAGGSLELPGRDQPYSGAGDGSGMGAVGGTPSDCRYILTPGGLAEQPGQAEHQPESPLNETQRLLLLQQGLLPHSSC
Assay: Caliper, Mobility shift assay off-chip
Settings: compound 0.02 µM
Kindly answer with a numeric value in %, unit omitted.

Given item Cc1ccc(Nc2nccc(N(C)c3ccc4c(C)n(C)nc4c3)n2)cc1S(N)(=O)=O , the value recorded as its inhibition is 2.3

Quick note, inhibition for CNC(=O)c1ccccc1Sc1ccc2c(/C=C/c3ccccn3)n[nH]c2c1 landed at -2

Memo: CNC(=O)c1cc(Oc2ccc(NC(=O)Nc3ccc(Cl)c(C(F)(F)F)c3)cc2)ccn1 , reported inhibition: -9.4

Quick note, inhibition for COc1cc2c(Oc3ccc4[nH]c(C)cc4c3F)ncnc2cc1OCCCN1CCCC1 landed at 7.9

###

Target: UniProtKB Q9BZL6
Sequence (Q9BZL6 whole entry, looked up): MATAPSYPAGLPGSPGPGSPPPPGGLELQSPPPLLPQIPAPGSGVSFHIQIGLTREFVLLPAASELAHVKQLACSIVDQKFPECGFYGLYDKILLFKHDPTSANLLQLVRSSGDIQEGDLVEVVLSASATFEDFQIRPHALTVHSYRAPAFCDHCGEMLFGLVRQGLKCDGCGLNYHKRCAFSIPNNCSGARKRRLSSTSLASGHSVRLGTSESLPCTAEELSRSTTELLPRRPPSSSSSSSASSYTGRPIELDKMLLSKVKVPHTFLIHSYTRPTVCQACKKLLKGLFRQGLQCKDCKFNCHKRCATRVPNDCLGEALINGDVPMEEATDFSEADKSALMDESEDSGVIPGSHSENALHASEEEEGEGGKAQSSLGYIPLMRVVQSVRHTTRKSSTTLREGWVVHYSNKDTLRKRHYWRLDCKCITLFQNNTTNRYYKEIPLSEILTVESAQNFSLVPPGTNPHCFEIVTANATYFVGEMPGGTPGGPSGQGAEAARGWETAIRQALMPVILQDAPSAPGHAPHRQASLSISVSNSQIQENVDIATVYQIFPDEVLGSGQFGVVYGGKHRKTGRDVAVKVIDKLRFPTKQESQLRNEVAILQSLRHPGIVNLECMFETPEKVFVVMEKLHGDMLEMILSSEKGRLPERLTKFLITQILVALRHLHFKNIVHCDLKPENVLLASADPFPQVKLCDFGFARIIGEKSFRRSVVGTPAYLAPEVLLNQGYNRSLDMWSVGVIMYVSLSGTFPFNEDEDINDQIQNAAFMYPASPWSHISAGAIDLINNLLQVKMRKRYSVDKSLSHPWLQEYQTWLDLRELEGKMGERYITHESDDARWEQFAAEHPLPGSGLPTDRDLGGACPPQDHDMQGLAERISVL
Assay: Caliper, Mobility shift assay off-chip
Settings: compound 0.02 µM
readout-kind: inhibition (%)
Express it in %; write the number only.

Solved entries (count: 3):
>  <compound-string>
CNC(=O)c1ccccc1Sc1ccc2c(/C=C/c3ccccn3)n[nH]c2c1

>  <experimental-target>
UniProtKB Q9BZL6

>  <readout-kind>
inhibition

>  <data-value>
-2.1

$$$$
>  <compound-string>
Cc1ccc(Nc2nccc(N(C)c3ccc4c(C)n(C)nc4c3)n2)cc1S(N)(=O)=O

>  <experimental-target>
UniProtKB Q9BZL6

>  <readout-kind>
inhibition

>  <data-value>
-2.2

$$$$
>  <compound-string>
CNC(=O)c1cc(Oc2ccc(NC(=O)Nc3ccc(Cl)c(C(F)(F)F)c3)cc2)ccn1

>  <experimental-target>
UniProtKB Q9BZL6

>  <readout-kind>
inhibition

>  <data-value>
-1.2

$$$$

Alright, here's another molecule for you.
Recorded inhibition for COc1cc2c(Oc3ccc4[nH]c(C)cc4c3F)ncnc2cc1OCCCN1CCCC1 on UniProtKB Q9BZL6 was -0.3

Measured values drawn from the kinase profiling compilation of Christmann-Franck et al. (2016) for this set.
